# study_system: HLA-A*1101 (human)
reported_metric: binding affinity ratio (IC50 of standard peptide / IC50 of test peptide)
Could you respond with only the numeric value?

binder	recorded_number
IVGGVYLLPR (modifications not checked) [HCV peptide … (position 30)]	0.0056
VGIYLLPNR (modifications not checked) [… (HCV polyprotein position 3036, 9-mer)]	0.01
VGGVYLLPR (modifications not checked) [… (HCV polyprotein position 31, 9-mer)]	0.0019

Note: attention shifts to another entry.
Entry under review: GGVYLLPRR (modifications not checked) [… (HCV polyprotein position 32)] . Reported binding affinity ratio (IC50 of standard peptide / IC50 of test peptide)?
0.001

Ref: patent US20090304746A1
